tested on: 276233-004-R-J1-PDC complex spheroid viability; experiment: Anticancer human tumor 276233-004-R-J1-PDC patient-derived colon adenocarcinoma cell line growth inhibition [GQUAD]; conditions: curve of first compound; second compound 1 µM;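 also: spheroids exposed to drugs for seven days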
Each entry below carries its reported IC50.

Here is how some compounds turned out for IC50.
CC1COCCN1c1cc(C2(S(C)(=N)=O)CC2)nc(-c2ccnc3[nH]ccc23)n1 (centres undefined) + Cc1cnc(CNC(=O)c2c(=O)c3ccc(N4CCCN(C)CC4)nc3n3c2sc2ccccc23)cn1 ... > 10 µM
CC(C)n1c(=O)n(C)c2cnc3cc(F)c(-c4ccc(OCCCN5CCCCC5)nc4)cc3c21 + CN(C)c1ccc(Nc2c3ccc(NC(=O)CCN4CCCC4)cc3nc3cc(NC(=O)CCN4CCCC4)ccc23)cc1 ... > 10 µM

So for CC(C)n1c(=O)n(C)c2cnc3cc(F)c(-c4ccc(OCCCN5CCCCC5)nc4)cc3c21 + Cc1cnc(CNC(=O)c2c(=O)c3ccc(N4CCCN(C)CC4)nc3n3c2sc2ccccc23)cn1 , the logged IC50 turned out to be > 10 µM

So for Cc1cccc(N(C)C(=O)C2C(O)CCN2c2nc(C)cc(C(F)(F)F)c2C#N)c1 (centres undefined) + Cc1[nH]c2ccc(F)cc2c1-c1nc2c3cccnc3c3ncccc3c2[nH]1 , the logged IC50 turned out to be > 10 µM

So for C=CCn1c(=O)c2cnc(Nc3ccc(N4CCN(C)CC4)cc3)nc2n1-c1cccc(C(C)(C)O)n1 + CN(C)c1ccc(Nc2c3ccc(NC(=O)CCN4CCCC4)cc3nc3cc(NC(=O)CCN4CCCC4)ccc23)cc1 , the logged IC50 turned out to be < 0.0316 µM

So for O=C(c1cc(Cc2n[nH]c(=O)c3ccccc23)ccc1F)N1CCN(C(=O)C2CC2)CC1 + Cc1cnc(CNC(=O)c2c(=O)c3ccc(N4CCCN(C)CC4)nc3n3c2sc2ccccc23)cn1 , the logged IC50 turned out to be > 10 µM

So for COc1ncnc(C2CC2)c1-c1ncc2cnn(Cc3ccc(-c4nc(C(F)(F)F)cn4C(C)C)cc3)c2n1 + Cc1cnc(CNC(=O)c2c(=O)c3ccc(N4CCCN(C)CC4)nc3n3c2sc2ccccc23)cn1 , the logged IC50 turned out to be > 10 µM

So for Cn1ncnc1[C@H]1c2n[nH]c(=O)c3cc(F)cc(c23)N[C@@H]1c1ccc(F)cc1 + Cc1cnc(CNC(=O)c2c(=O)c3ccc(N4CCCN(C)CC4)nc3n3c2sc2ccccc23)cn1 , the logged IC50 turned out to be > 0.316 µM

So for CC[C@@]1(O)C(=O)OCc2c1cc1n(c2=O)Cc2cc3c(CN(C)C)c(O)ccc3nc2-1 + Cc1cnc(CNC(=O)c2c(=O)c3ccc(N4CCCN(C)CC4)nc3n3c2sc2ccccc23)cn1 , the logged IC50 turned out to be > 0.316 µM
